- tested on: CDK2/CycE (Homo sapiens, UniProt P24941)
- Construct: GST
- assay explanation: CDK2/CycE Kinase Assay
- study conditions: histone IIIS substrate, 33P-ATP, 15 minutes at 22° C.
property name: IC50 (nM)

A: CCC(Sc1nc(Nc2ccc(S(C)(=N)=O)cc2)ncc1Br)C(C)O (racemic)
B: COC[C@@H](Nc1nc(Nc2ccc(S(C)(=N)=O)cc2)ncc1Br)[C@@H](C)O (mixture of isomers)
C: CCOC(=O)N=S(=O)(CC)c1ccc(Nc2ncc(Br)c(N[C@H](C)[C@@H](C)O)n2)cc1 (mixture of isomers)
q: Rank the listed compounds according to IC50, from the largest value downward. Could you list the labels in the order requested?
a: A, C, B
(A: 18 nM, C: 11 nM, B: 4 nM)
